Molecular target: T1, BMP-12 (UniProt Q7Z4P5 322-450, limits assumed)
T1 construct: also called BMP12/GDF7
T1 sequence (looked up): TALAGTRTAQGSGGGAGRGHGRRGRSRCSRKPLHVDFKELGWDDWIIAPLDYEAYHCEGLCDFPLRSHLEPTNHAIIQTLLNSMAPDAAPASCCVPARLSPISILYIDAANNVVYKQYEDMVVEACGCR
Experiment: peptide resin, filter plate; load 10: 50 mM Tris, 0.1 M NaCl, 40% MPD, pH 8.0
No end group written: not given here.
MEASUREMENT_TYPE: Flow-through conc (mg/mL)

BINDER	MEASURED
Ac-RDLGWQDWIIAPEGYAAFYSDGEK [BMP5 peptide 748]	0.407
Ac-LYVSDVGWNDWIVK (not fully specified (residue 3); printed as Ac-LYV**SDVGWNDWIVK; also: ** after V3 not explained) [BMP2 C-trunc_2 peptide 746]	0.505
Ac-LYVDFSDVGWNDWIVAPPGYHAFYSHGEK [BMP2 Full peptide 747]	0.482
Ac-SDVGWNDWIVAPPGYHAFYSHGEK [BMP2 N-trun 1S peptide 751]	0.435
Ac-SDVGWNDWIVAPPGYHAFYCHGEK [BMP2 N-trun peptide 750]	0.423
Ac-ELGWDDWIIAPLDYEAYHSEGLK [BMP12 N-trun_1S peptide 749]	0.434
Ac-VAPPGYHAFYSHGEK [BMP2 N-trunc_2 peptide 745]	0.464

Reference for the values: patent US7754689B2
